Give TGI for every item shown.
- Test system: SK-MEL-2 melanoma
- TEST_METHOD_NOTES: NCI tumour cell line growth inhibition, 48 h
Report the figure in µM without appending any unit label.

What TGI appears in the records for this compound with SK-MEL-2 melanoma? COc1ccc(OC)c(/C=N/N=C2\C(=O)Nc3c(Cl)cc(Cl)cc32)c1
68.8

Cool, now Cc1c(C(N)=O)sc2c1c(=O)n(Cc1ccccc1)c1nnc(S(=O)(=O)CC(=O)Nc3ccc(Cl)cc3)n21
7.18

Cool, now COc1cc(C2S/C(=C/c3ccccc3)C(=O)N2c2ccccc2Cl)cc(OC)c1OC (stereo not given)
39.7

Cool, now CC(=O)C1=NN(c2ccccc2)C2(S1)SC(c1ccccc1)(c1ccccc1)c1ccccc12 (stereo not given)
78.7

---

- Tested on: NCI/ADR-RES ovarian
- TEST_METHOD_NOTES: NCI tumour cell line growth inhibition, 48 h; in the data active = GI50 below about 0.43 µM; inactive = the rest
Parameter call: string, one of active, inactive

Name the outcome recorded for Cc1c(C(N)=O)sc2c1c(=O)n(Cc1ccccc1)c1nnc(S(=O)(=O)CC(=O)Nc3ccc(Cl)cc3)n21 in the assay.
inactive

Cool, now COc1ccc2c(c1)C=C1CSCC3=Cc4cc(OC)ccc4OC13O2
active

Cool, now CN(CCCN(C)CCC1CCCCC1)CCC1CCCCC1
inactive

Cool, now O=c1[nH]nc(-c2ccccc2)c2c(-c3ccccc3)onc12
active

Cool, now COc1ccc(CN=C(N)N=C(N)N)cc1OC
inactive

Cool, now O=C(Cn1c2ccccc2c2ccncc21)N/N=C\c1ccc2ccccc2c1
inactive

Cool, now COc1ccc2c(c1OC)C(=O)O[C@@H]2[C@H]1c2c(c(Br)c3c(c2OC)OCO3)CCN1C
inactive

Cool, now Cc1cn(Cc2ccccc2CCl)c(=O)n(Cc2ccccc2CCl)c1=O
inactive

Cool, now NS(=O)(=O)c1ccc(N2N=C(c3cccs3)CC2c2ccccc2O)cc1 (stereo not given)
inactive

Cool, now CNc1ncc2cc(Oc3ccc(F)cc3F)c(=O)n(C)c2n1
inactive

Cool, now Oc1ccc(O)c2c1C1(Cl)C(Cl)=C(Cl)C2(Cl)C1(Cl)Cl
inactive

Cool, now NCCSC(C[N+](=O)[O-])c1ccccc1Cl (stereo not given)
inactive

Cool, now CCc1nc(N)nc(N)c1C#CC(C)c1cc(-c2ccnc(C)c2)c2oc(C)nc2c1 (stereo not given)
active

Cool, now Cn1ncnc1C1c2n[nH]c(=O)c3cc(F)cc(c23)NC1c1ccc(F)cc1 (stereo not given)
inactive

Cool, now Cc1ccc(S(=O)(=O)Nc2cc(Sc3ccccc3)c(O)c3ccccc23)cc1
inactive

---

- Test system: DU-145 prostate
- TEST_METHOD_NOTES: NCI tumour cell line growth inhibition, 48 h
Classification field: class 1 = TGI at or over 40 µM; class 0 = TGI under 40 µM.

Check the entry Nc1ccccc1C#C/C=C\C#Cc1ccccc1F : does TGI equal or exceed 40 µM?
class 0

Cool, now CC(=O)Oc1cc(S(=O)(=O)Nc2n[nH]c(N)n2)c(S)cc1Cl
class 1

Cool, now Cc1c(C(N)=O)sc2c1c(=O)n(Cc1ccccc1)c1nnc(S(=O)(=O)CC(=O)Nc3ccc(Cl)cc3)n21
class 0

Cool, now NS(=O)(=O)c1ccc(N2N=C(c3cccs3)CC2c2ccccc2O)cc1 (stereo not given)
class 0

Cool, now COc1ccccc1Cn1[nH]c(=O)c2cc([N+](=O)[O-])ccc21
class 1

Cool, now Nc1cc(-c2ccccc2)n(C(=O)Nc2ccc(Oc3ccccc3)cc2)n1
class 1

Cool, now CCCc1cc(-c2ccc(-c3cc(CCC)c(C=O)[nH]3)s2)[nH]c1C=O
class 1

Cool, now Cc1ccc([N+](=O)[O-])c2c(NCCC[N+](C)(C)[O-])ccnc12
class 1

Cool, now NCCSC(C[N+](=O)[O-])c1ccccc1Cl (stereo not given)
class 0

Cool, now CCCCCCC(=O)OC[n+]1cccc(-c2c(COC(=O)NC(C)C)c(COC(=O)NC(C)C)c3n2CCC3)c1
class 1
